B1: EHEE_rd4_0086 (parent)
chain: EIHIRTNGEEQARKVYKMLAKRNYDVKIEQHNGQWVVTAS

Variants of: B1
Assay: folding stability dG (cDNA display proteolysis); higher = more stable
Settings: PBS, room temperature
// bucketize folding stability dG: Low: < 1 kcal/mol; Mid: ≥ 1 kcal/mol and < 2 kcal/mol; High: ≥ 2 kcal/mol

Here are 3 variants together with their reported answers.
EIHIRTNGEEQARKVYKWLAKRNYDVKIEQHNGQWVVTAS [M18W] :: High
EIHIRTNGEEQAFKVYKMLAKRNYDVKIEQHNGQWVVTAS [R13F] :: Mid
EIHIRTNGEKQARKVYKMLAKRNYDVKIEQHNGQWVVTAS [E10K] :: High

Request: Hi, small favor: classify EIKIRTNGEEQARKVYKMLAKRNYDVKIEQHNGQWVVTAS [H3K] by its folding stability dG when you get a moment.
Response: High

Request: Follow-up entry: EIHIRTNGEEQARKVYKMLAKRNYKVKIEQHNGQWVVTAS [D25K]
Response: High

Request: Also, EIHIRTNGEEQARKVYKMLAKRNYDVKIEQHLGQWVVTAS [N32L] please.
Response: Mid

Request: Same read-out for EIHIRTNGEEQLRKVYKMLAKRNYDVKIEQHNGQWVVTAS [A12L] ?
Response: Low

Request: Further, for EIHIRTNGEEQARKVYKMLAKRNYVVKIEQHNGQWVVTAS [D25V] ?
Response: High

Request: EIHIRTNGSEQARKVYKMLAKRNYDVKIEQHNGQWVVTAS [E9S]
Response: Mid

Request: Similarly, EIHIRTNGEEQARKVYKMLAKRNYDVDIEQHNGQWVVTAS [K27D] ?
Response: Low

Request: Consider next the variant EIHIRTNGEEQARKVYKMLAKRNYHVKIEQHNGQWVVTAS [D25H] in the same way.
Response: High

Request: Would you mind doing EIHIRTNGEEQARKVYKMLAKRRYDVKIEQHNGQWVVTAS [N23R] as well?
Response: Mid

Request: And what about the variant TIHIRTNGEEQARKVYKMLAKRNYDVKIEQHNGQWVVTAS [E1T] ?
Response: High
